Please respond with reported Lambda max of Dye C1 for every item in the list.
# method: Visible absorption maximum (Lambda max) of Dye C1 in the high-boiling solvent, as measure of solvent polarity/polarizability
# Assay type: physicochemical
# test.parameters: Perkin Elmer Lambda 2S spectrophotometer
Lab book: enter the figure in nm, no units written.

Reported Lambda max of Dye C1 of `O=C(OCCCCCOC(=O)c1ccccc1)c1ccccc1` : 674

Reported Lambda max of Dye C1 of CCCCC(CC)COC(=O)c1ccccc1 (stereo not drawn) [B3, reference compound] : 661

Reported Lambda max of Dye C1 of Cc1ccc(C(=O)OCCC(C)OC(=O)c2ccc(C)cc2)cc1 (stereo not drawn) : 672

Reported Lambda max of Dye C1 of Cc1cccc(C(=O)OCCC(C)OC(=O)c2cccc(C)c2)c1 (stereo not drawn) : 672

Reported Lambda max of Dye C1 of CCCCC(COC(=O)c1ccccc1)OC(=O)c1ccccc1 (stereo not drawn) : 672

Reported Lambda max of Dye C1 of CCCC(COC(=O)c1ccccc1)OC(=O)c1ccccc1 (stereo not drawn) : 673

====

# method: Water solubility from light scattering (at 500 nm) of dispersions of the high-boiling solvent in water
# Assay type: physicochemical
Record satisfied whenever Water Solubility is at 2 µg/mL or higher; record not satisfied when lower.

Q: Hi team, for CCCCC(COC(=O)c1ccccc1)OC(=O)c1ccccc1 (stereo not drawn) [A2] , is the recorded Water Solubility at or above 2 µg/mL?
Result: not satisfied

Q: Hi team, for Cc1ccc(C(=O)OCCC(C)OC(=O)c2ccc(C)cc2)cc1 (stereo not drawn) [A1] , is the recorded Water Solubility at or above 2 µg/mL?
Result: not satisfied

Q: Hi team, for CCCC(COC(=O)c1ccccc1)OC(=O)c1ccccc1 (stereo not drawn) [A5] , is the recorded Water Solubility at or above 2 µg/mL?
Result: not satisfied

Q: Hi team, for Cc1cccc(C(=O)OCCC(C)OC(=O)c2cccc(C)c2)c1 (stereo not drawn) [A3] , is the recorded Water Solubility at or above 2 µg/mL?
Result: not satisfied

Q: Hi team, for O=C(OCCCCCOC(=O)c1ccccc1)c1ccccc1 [A4] , is the recorded Water Solubility at or above 2 µg/mL?
Result: satisfied

Q: Hi team, for O=C(OCCc1ccccc1)c1ccccc1 [B4, reference compound] , is the recorded Water Solubility at or above 2 µg/mL?
Result: satisfied

====

# method: Viscosity measured using a Brookfield cone/plate viscometer
# Format: physicochemical
property: Viscosity

Reported Viscosity of CCCCC(CC)COC(=O)c1ccccc1 (stereo not drawn) [B3, reference compound] : 6 centipoise

Reported Viscosity of Cc1cccc(C(=O)OCCC(C)OC(=O)c2cccc(C)c2)c1 (stereo not drawn) : 295 centipoise

Reported Viscosity of CCCCC(COC(=O)c1ccccc1)OC(=O)c1ccccc1 (stereo not drawn) : 157 centipoise

Reported Viscosity of `O=C(OCCCCCOC(=O)c1ccccc1)c1ccccc1` : 70 centipoise

Reported Viscosity of CCCC(COC(=O)c1ccccc1)OC(=O)c1ccccc1 (stereo not drawn) : 122 centipoise

Reported Viscosity of Cc1ccc(C(=O)OCCC(C)OC(=O)c2ccc(C)cc2)cc1 (stereo not drawn) : 265 centipoise
